// provenance: patent US20260167622A1

biological target: KRAS WT (expanded) protein in MKN1 cells (Homo sapiens, UniProt P01116); construct: endogenous in cells; host or cells: MKN1 (MKN-1); assay: KRAS degradation assay (Western Blot) in MKN1 cells; assay type: cell-based; settings: 24 h
Sequence (P01116 1-188 isoform P01116-2): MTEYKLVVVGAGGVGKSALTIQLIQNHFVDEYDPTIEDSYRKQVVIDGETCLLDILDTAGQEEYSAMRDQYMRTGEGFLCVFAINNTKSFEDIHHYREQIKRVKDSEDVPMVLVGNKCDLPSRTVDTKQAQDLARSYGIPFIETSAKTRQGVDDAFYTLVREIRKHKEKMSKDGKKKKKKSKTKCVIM
The following compounds are shown together with reported DC50 values.

compound	qualifier	DC50 [nM]
C#Cc1c(F)ccc2cc(O)cc(-c3ncc4c(N5CCC[C@@](C)(O)C5)nc(OCC5(CN6CCN(CC7CCC8(CC7)CCN(C(=O)c7ccc(OC)c(N9CCC(=O)NC9=O)c7)CC8)CC6)CC5)nc4c3F)c12 [Example 7]	≤	50
C#Cc1c(F)ccc2cc(O)cc(-c3ncc4c(N5CCC[C@@](C)(O)C5)nc(OC[C@H](C)CN5CCN(CC6CCC7(CC6)CCN(C(=O)c6ccc(C)c(N8CCC(=O)NC8=O)c6)CC7)CC5)nc4c3F)c12 [Example 47]	=	0.28
C#Cc1c(F)ccc2cc(O)cc(-c3ncc4c(N5CCC[C@@](C)(O)C5)nc(OCC5(CN6CCN(CC7CCC8(CC7)CCN(C(=O)c7ccc(CC)c(N9CCC(=O)NC9=O)c7)CC8)CC6)CC5)nc4c3F)c12 [Example 92]	=	0.42
C#Cc1c(F)ccc2cc(O)cc(-c3ncc4c(N5CCC[C@@](C)(O)C5)nc(OCC5(CN6CCN(CC7CCC8(CC7)CCN(C(=O)c7cc(N9CCC(=O)NC9=O)c(C)cc7F)CC8)CC6)CC5)nc4c3F)c12 [Example 91]	=	1.15
CCc1cccc2cc(O)cc(-c3ncc4c(N5CCC[C@@](C)(O)C5)nc(OCC5(CN6CCN(CC7CCC8(CC7)CCN(C(=O)c7ccc(Cl)c(N9CCC(=O)NC9=O)c7)CC8)CC6)CC5)nc4c3F)c12 [Example 3]	≤	50
C#Cc1c(F)ccc2cc(O)cc(-c3ncc4c(N5CCC[C@@](C)(O)C5)nc(OC[C@H](C)CN5CCN(CC6CCC7(CC6)CCN(C(=O)c6ccc(Cl)c(N8CCC(=O)NC8=O)c6)CC7)CC5)nc4c3F)c12 [Example 48]	=	2.33
C#Cc1c(F)ccc2cc(O)cc(-c3ncc4c(N5CCC[C@@](C)(O)C5)nc(OCC5(CN6CCN(CC7CCC8(CC7)CCN(C(=O)c7ccc(C)c(N9CCC(=O)NC9=O)c7)CC8)CC6)CC5)nc4c3F)c12 [Example 6]	≤	50
[2H]C([2H])([2H])Oc1ccc(C(=O)N2CCC3(CCC(CN4CCN(CC5(COc6nc(N7CCC[C@@](C)(O)C7)c7cnc(-c8cc(O)cc9ccc(F)c(C#C)c89)c(F)c7n6)CC5)CC4)CC3)CC2)cc1N1CCC(=O)NC1=O [Example 170]	=	0.76
C#Cc1c(F)ccc2cc(O)cc(-c3ncc4c(N5CCC[C@@](C)(O)C5)nc(OC[C@H](C)CN5CCN(CC6CCC7(CC6)CCN(C(=O)c6ccc(OC)c(N8CCC(=O)NC8=O)c6)CC7)CC5)nc4c3F)c12 [Example 46]	=	1.26
[2H]C([2H])([2H])c1ccc(C(=O)N2CCC3(CCC(CN4CCN(CC5(COc6nc(N7CCC[C@@](C)(O)C7)c7cnc(-c8cc(O)cc9ccc(F)c(C#C)c89)c(F)c7n6)CC5)CC4)CC3)CC2)cc1N1CCC(=O)NC1=O [Example 111]	=	0.69
C#Cc1c(F)ccc2cc(O)cc(-c3ncc4c(N5CCC[C@@](C)(O)C5)nc(OCC5(CN6CCN(CC7CCC8(CC7)CCN(C(=O)c7ccc(Cl)c(N9CCC(=O)NC9=O)c7)CC8)CC6)CC5)nc4c3F)c12 [Example 1]	≤	50
[2H]C([2H])([2H])Oc1ccc(C(=O)N2CCC3(CCC(CN4CCN(C[C@@H](C)COc5nc(N6CCC[C@@](C)(O)C6)c6cnc(-c7cc(O)cc8ccc(F)c(C#C)c78)c(F)c6n5)CC4)CC3)CC2)cc1N1CCC(=O)NC1=O [Example 164]	=	1.25
